system: alkaline pullulanase Y; assay: Effects of metal ions and chelating agents on α-amylase activity (DNS reducing sugar assay); assay type: biochemical, Bacillus sp. KSM-AP1378; conditions: metal salt 1 mM
Measured Property: Residual activity (%) α-amylase Activity

INSERT INTO results (compound, val) VALUES
  ('[Cl][Cd][Cl] [CdCl₂]', 38),
  ('[Cl][Mn][Cl] [MnCl₂]', 28),
  ('[Cl-].[Cl-].[Zn+2] [ZnCl₂]', 57),
  ('[Cl][Pb][Cl] [PbCl₂]', 53);

###

test system: alkaline pullulanase Y; assay: Substrate specificity (relative activity on various substrates); type: biochemical, Bacillus sp. KSM-AP1378; conditions: substrate concentration 1 x 10⁻² M
Measured Property: Relative Activity (%)

INSERT INTO results (molecule, measured_property, val) VALUES
  ('OC[C@H]1O[C@H](OC[C@H]2O[C@H](O[C@H]3[C@H](O)[C@@H](O)C(O)O[C@@H]3CO)[C@H](O)[C@@H](O)[C@@H]2O)[C@H](O)[C@@H](O)[C@@H]1O (stereo partly drawn)', 'Relative Activity (%)', '0%'),
  ('OC[C@H]1O[C@H](OC[C@H]2O[C@H](OC[C@H]3OC(O)[C@H](O)[C@@H](O)[C@@H]3O)[C@H](O)[C@@H](O)[C@@H]2O)[C@H](O)[C@@H](O)[C@@H]1O (stereo partly drawn)', 'Relative Activity (%)', '11%'),
  ('OC[C@H]1O[C@@H](OC[C@H]2OC(O)[C@H](O)[C@@H](O)[C@@H]2O)[C@H](O)[C@@H](O)[C@@H]1O (stereo partly drawn)', 'Relative Activity (%)', '0%');
